# Test system: Trypanosoma congolense
# experiment_description: Antitrypanosomal activity against bloodstream form of Trypanosoma congolense measured after 48 hrs by alamar blue assay
# Assay type: functional, organism-based
property_name: EC50 (nM)
All answers are understood in nM, so give the number only.

molecule	measure_unit	EC50
N=C(N)c1ccc(/N=N/Nc2ccc(C(=N)N)cc2)cc1 [DIMINAZENE]	nM	200

Could you now look at the following molecule, please?
Endpoint output: EC50 of Cn1cc(NC(=O)c2ccc(/C=C/c3cnc4ccccc4c3)cc2)cc1C(=O)NCCN1CCOCC1 . Value?
3400

* * *

The entries below come with measured pEC50 values attached.
# Test system: Trypanosoma vivax
# experiment_description: Antitrypanosomal activity against Trypanosoma vivax STIB 719 by [3H]-hypoxanthine incorporation assay
# Format: functional, organism-based
Friendly reminder that pEC50 comes from taking -log10 of the concentration in mol/L.

compound	property_name	endpoint_value
Cn1cc(NC(=O)c2ccc(/C=C/c3cnc4ccccc4c3)cc2)cc1C(=O)NCCN1CCOCC1	pEC50	6.12

Could you now look at the following compound, please?
Endpoint output: pEC50 of N=C(N)c1ccc(/N=N/Nc2ccc(C(=N)N)cc2)cc1 [DIMINAZENE] . Value?
6.77

* * *

# Tested on: Trypanosoma brucei brucei
# experiment_description: Antiparasitic activity against wild-type Trypanosoma brucei brucei measured after 48 hrs by alamar blue assay
# Assay type: functional, organism-based
The entries below come with measured pEC50 values attached.
Friendly reminder that pEC50 comes from taking -log10 of the concentration in mol/L.

smiles_record	pEC50
N=C(N)c1ccc(/N=N/Nc2ccc(C(=N)N)cc2)cc1	7.52

Could you now look at the following compound, please?
Endpoint output: pEC50 of Cn1cc(NC(=O)c2ccc(/C=C/c3cnc4ccccc4c3)cc2)cc1C(=O)NCCN1CCOCC1 . Value?
5.92

* * *

# Tested on: Trypanosoma brucei brucei
# experiment_description: Antiparasitic activity against bloodstream form of Trypanosoma brucei brucei B48 measured after 48 hrs by alamar blue assay
# Assay type: functional, organism-based
# details: B48, 48 h
property_name: pEC50
Friendly reminder that pEC50 comes from taking -log10 of the concentration in mol/L.

smiles_record	pEC50
Cn1cc(NC(=O)c2ccc(/C=C/c3cnc4ccccc4c3)cc2)cc1C(=O)NCCN1CCOCC1	6.22

Could you now look at the following compound, please?
# query: pEC50 | item N=C(N)c1ccc(/N=N/Nc2ccc(C(=N)N)cc2)cc1 | system: Trypanosoma brucei brucei
7.10

* * *

# System: DNA
# experiment_description: Binding affinity to DNA (unknown origin) assessed as change in melting temperature at 2:1 compound to DNA ratio by UV-visible spectrophotometry
# Assay type: nucleic-acid assay
property_name: ΔTm (°C)
All answers are understood in °C, so give the number only.

Reference set, count: 8
compound	target_entity	endpoint_value
COc1ccc(/C=C/c2ccc(C(=O)Nc3cc(C(=O)Nc4cc(C(=O)NCCN5CCOCC5)n(C)c4)n(C)c3)cn2)cc1	DNA	12
Cn1cc(NC(=O)c2ccc(/C=C/c3cnc4ccccc4c3)cc2)cc1C(=O)NCCN1CCOCC1	DNA	10
COc1cccc(/C=C/c2ccc(C(=O)Nc3cc(C(=O)N4CCN(C)CC4)n(C)c3)cc2)c1	DNA	0
COc1ccc(/C=C/c2ccc(C(=O)Nc3cc(C(=O)N4CCN(C)CC4)n(C)c3)cn2)cc1	DNA	0
CN1CCN(C(=O)c2cc(NC(=O)c3ccc(/C=C/c4cnc5ccccc5c4)cc3)cn2C)CC1	DNA	2
Cn1cc(NC(=O)c2cc(NC(=O)c3ccc(/C=C/c4cnc5ccccc5c4)cc3)cn2C)cc1C(=O)NCCN1CCOCC1 [MGB-BP-3]	DNA	20
COc1cccc(/C=C/c2ccc(C(=O)Nc3cc(C(=O)NCCN4CCOCC4)n(C)c3)cc2)c1	DNA	0
COc1cccc(/C=C/c2ccc(C(=O)Nc3cc(C(=O)NN(C)C)n(C)c3)cc2)c1	DNA	0

Endpoint output: ΔTm of COc1cccc(/C=C/c2ccc(C(=O)Nc3cc(C(=O)Nc4cc(C(=O)NCCN5CCOCC5)n(C)c4)n(C)c3)cc2)c1 . Value?
10

Endpoint output: ΔTm of COc1ccc(/C=C/c2ccc(C(=O)Nc3cc(C(=O)NN(C)C)n(C)c3)cn2)cc1 . Value?
0

* * *

# experiment_description: Diffusion coefficient of compound in 50% v/v pH 5 sodium acetate buffer in DMSO-d6 at 1.5 mM by DOSY analysis
# Assay type: physicochemical
# details: pH 5, 1500 µM
The entries below come with measured D values attached.

compound	D
Cn1cc(NC(=O)c2cc(NC(=O)c3ccc(/C=C/c4cnc5ccccc5c4)cc3)cn2C)cc1C(=O)NCCN1CCOCC1 [MGB-BP-3]	1.07 10^-10 m²/s

Endpoint output: D of Cn1cc(NC(=O)c2ccc(/C=C/c3cnc4ccccc4c3)cc2)cc1C(=O)NCCN1CCOCC1 . Value?
1.75 10^-10 m²/s
